tested on: Hepatotoxicity; test: FDA HLAED, serum glutamic oxaloacetic transaminase (SGOT) increase; details: human
value kind: SGOT Increase - Number of Reports

CO[C@@]1(NC(=O)Cc2cccs2)C(=O)N2C(C(=O)O)=C(COC(N)=O)CS[C@@H]21 [CEFOXITIN]
< 4
COCCOC(=O)C1=C(C)NC(C)=C(C(=O)OC(C)C)C1c1cccc([N+](=O)[O-])c1 (centres undefined) [NIMODIPINE]
>= 4
CN[C@H]1CC[C@@H](c2ccc(Cl)c(Cl)c2)c2ccccc21 [SERTRALINE]
>= 4
C[N+](C)(C)CCO.Cn1c(=O)c2[n-]cnc2n(C)c1=O [OXTRIPHYLLINE]
< 4

* * *

system: Hepatotoxicity; assay: FDA HLAED, serum glutamic oxaloacetic transaminase (SGOT) increase; conditions: human
value kind: SGOT Increase - Activity Score

Answered examples (5):
C[C@]12CC[C@@H]3c4ccc(OC(=O)N(CCCl)CCCl)cc4CC[C@H]3[C@@H]1CC[C@@H]2O [ESTRAMUSTINE]
Inactive
CCCCCc1cc(O)c2c(c1)OC(C)(C)[C@@H]1CCC(C)=C[C@@H]21 [DRONABINOL]
Inactive
CCn1nc(C(=O)O)c(=O)c2cc3c(cc21)OCO3 [CINOXACIN]
Active
O=C(O)C1=C(CSc2nnnn2CS(=O)(=O)O)CS[C@@H]2[C@H](NC(=O)[C@H](O)c3ccccc3)C(=O)N12 [CEFONICID]
Inactive
CCC(=O)Oc1ccc2c(c1)CC[C@@H]1[C@@H]2CC[C@]2(C)[C@@H](OC(=O)CC)CC[C@@H]12 [ESTRADIOL DIPROPIONATE]
Inactive

Given the entry CO[C@H]1/C=C/O[C@@]2(C)Oc3c(C)c(O)c4c(c3C2=O)C2=NC3(CCN(CC(C)C)CC3)NC2=C(NC(=O)/C(C)=C\C=C\[C@H](C)[C@H](O)[C@@H](C)[C@@H](O)[C@@H](C)[C@H](OC(C)=O)[C@@H]1C)C4=O [RIFABUTIN] , report its measured SGOT Increase - Activity Score.
Active

Would you kindly repeat that for CCC1=C(C)CN(C(=O)NCCc2ccc(S(=O)(=O)NC(=O)N[C@H]3CC[C@H](C)CC3)cc2)C1=O [GLIMEPIRIDE] ?
Inactive

Would you kindly repeat that for COc1ccc([C@@H]2Sc3ccccc3N(CCN(C)C)C(=O)[C@@H]2OC(C)=O)cc1 [DILTIAZEM] ?
Inactive

Would you kindly repeat that for CCOC(=O)/C=C(C)/C=C/C=C(C)/C=C/c1c(C)cc(OC)c(C)c1C [ETRETINATE] ?
Active

Would you kindly repeat that for CC(=O)Nc1ccc(O)cc1 [ACETAMINOPHEN] ?
Active

* * *

Reported GGT Increase - Number of Reports values are given for each entry in this list.
test system: Hepatotoxicity; test: FDA HLAED, gamma-glutamyl transferase (GGT) increase; conditions: human

Answered examples (3):
COCC1=C(C(=O)OC(C)OC(=O)OC(C)C)N2C(=O)[C@@H](NC(=O)/C(=N\OC)c3csc(N)n3)[C@H]2SC1 (some centres undefined)
< 4
CC(NCCc1ccc(O)cc1)C(O)c1ccc(O)cc1 (centres undefined)
< 4
Nc1ccn([C@@H]2O[C@H](CO)[C@@H](O)C2(F)F)c(=O)n1
< 4

Now turn to the next compound.
Give the reported GGT Increase - Number of Reports for `Oc1ccc2c3c1O[C@H]1[C@@H](O)CC[C@@]4(O)[C@@H](C2)N(CC2CCC2)CC[C@]314` (system: Hepatotoxicity).
< 4
